Recorded measurements of remaining at 0.5 h, one per entry
test-details: Stability in mouse liver microsomes assessed as parent compound remaining after 30 mins
Assay type: ADME, Microsome
settings: read-out: Stability
The answer is to be given in %; state only the numeric part.

Some compounds with known remaining at 0.5 h results, for comparison:
compound	remaining at 0.5 h, %
CCCCc1nc(C(C)C)c(C(C)C(=O)OCC)c(=O)n1Cc1ccc(-c2ccccc2-c2noc(=O)[nH]2)cc1 (stereo unspecified)	28
CCCCc1nc(C(C)C)c(CC(=O)OCCC)c(=O)n1Cc1ccc(-c2ccccc2-c2noc(=O)[nH]2)cc1	12.6
CCCCc1nc(C)c(CC(=O)OCC)c(=O)n1Cc1ccc(-c2ccccc2-c2noc(=O)[nH]2)cc1	12.9

Exercise: Indicate its recorded remaining at 0.5 h; the compound in question is "CCCCc1nc(C(C)C)c(CC(=O)OC(CC)CC)c(=O)n1Cc1ccc(-c2ccccc2-c2noc(=O)[nH]2)cc1"
Key: 14.6

Exercise: Provide measured remaining at 0.5 h value, entry: "CCCCOC(=O)Cc1c(C(C)C)nc(CCCC)n(Cc2ccc(-c3ccccc3-c3noc(=O)[nH]3)cc2)c1=O"
Key: 21.6

Exercise: Retrieve remaining at 0.5 h measured for "CCCCc1nc(C(C)C)c(CC(=O)OC2CCCCC2)c(=O)n1Cc1ccc(-c2ccccc2-c2noc(=O)[nH]2)cc1" and print it.
Key: 14.6

Exercise: Output measured remaining at 0.5 h for this item: "CCCCc1nc(C)c(CC(=O)OC(C)C)c(=O)n1Cc1ccc(-c2ccccc2-c2noc(=O)[nH]2)cc1"
Key: 4

Exercise: For the compound "CCCCc1nc(C)c(CC(=O)OC)c(=O)n1Cc1ccc(-c2ccccc2-c2noc(=O)[nH]2)cc1" , give its reported remaining at 0.5 h.
Key: 47.1

Exercise: Return remaining at 0.5 h (reported value) for this compound: "CCCCc1nc(C)c(CC(=O)OC2CC2)c(=O)n1Cc1ccc(-c2ccccc2-c2noc(=O)[nH]2)cc1"
Key: 12.8

Exercise: Determine its reported remaining at 0.5 h: "CCCCc1nc(C(C)C)c(CC(=O)O)c(=O)n1Cc1ccc(-c2ccccc2-c2noc(=O)[nH]2)cc1"
Key: 100

Exercise: Indicate the recorded remaining at 0.5 h value for this compound: "CCCCc1nc(C(C)C)c(CC(=O)OCC)c(=O)n1Cc1ccc(-c2ccccc2-c2noc(=O)[nH]2)cc1"
Key: 3.9

Exercise: Please give the documented remaining at 0.5 h of "CCCCc1nc(C)c(CC(=O)OCC(C)C)c(=O)n1Cc1ccc(-c2ccccc2-c2noc(=O)[nH]2)cc1"
Key: 7.7

Exercise: Give the value of remaining at 0.5 h reported for the following: "[2H]C([2H])(C(=O)OCC)c1c(C)nc(CCCC)n(Cc2ccc(-c3ccccc3-c3noc(=O)[nH]3)cc2)c1=O"
Key: 78.4

Exercise: Quote remaining at 0.5 h reported for "CC#CCOC(=O)Cc1c(C)nc(CCCC)n(Cc2ccc(-c3ccccc3-c3noc(=O)[nH]3)cc2)c1=O" please.
Key: 18.3

Exercise: Item "CCCCCOC(=O)Cc1c(C(C)C)nc(CCCC)n(Cc2ccc(-c3ccccc3-c3noc(=O)[nH]3)cc2)c1=O" : provide remaining at 0.5 h
Key: 19.7

Exercise: Give the reported remaining at 0.5 h for this compound. "CC#CCOC(=O)Cc1c(C(C)C)nc(CCCC)n(Cc2ccc(-c3ccccc3-c3noc(=O)[nH]3)cc2)c1=O"
Key: 16.4

---

test-details: Stability in human liver microsomes assessed as parent compound remaining after 30 mins
Assay type: ADME, Microsome
settings: read-out: Stability
measurement-kind: remaining at 0.5 h (%)
# unit: % | format: bare number

compound	value-measured
CCCCc1nc(C(C)C)c(CC(=O)OC2CCCCC2)c(=O)n1Cc1ccc(-c2ccccc2-c2noc(=O)[nH]2)cc1	13.3
CCCCc1nc(C)c(CC(=O)OCC2CCCCC2)c(=O)n1Cc1ccc(-c2ccccc2-c2noc(=O)[nH]2)cc1	11.5
CCCCc1nc(C(C)C)c(C(C)C(=O)OCC)c(=O)n1Cc1ccc(-c2ccccc2-c2noc(=O)[nH]2)cc1 (stereo not drawn)	11
CCCCc1nc(C(C)C)c(CC(=O)O)c(=O)n1Cc1ccc(-c2ccccc2-c2noc(=O)[nH]2)cc1	86.8

Exercise: Respond only with remaining at 0.5 h recorded for "CCCCc1nc(C)c(CC(=O)OC(C)C)c(=O)n1Cc1ccc(-c2ccccc2-c2noc(=O)[nH]2)cc1"
Key: 17.5

Exercise: Return reported remaining at 0.5 h. Input compound: "CCCCc1nc(C)c(CC(=O)OCC)c(=O)n1Cc1ccc(-c2ccccc2-c2noc(=O)[nH]2)cc1"
Key: 46.6

Exercise: Consider the compound "[2H]C([2H])(C(=O)OCC)c1c(C)nc(CCCC)n(Cc2ccc(-c3ccccc3-c3noc(=O)[nH]3)cc2)c1=O" and give its recorded remaining at 0.5 h.
Key: 46.5

Exercise: Fill in reported remaining at 0.5 h for this entry: "CCCCc1nc(C)c(CC(=O)OCC2CC2)c(=O)n1Cc1ccc(-c2ccccc2-c2noc(=O)[nH]2)cc1"
Key: 20

---

system: Voltage-gated inwardly rectifying potassium channel KCNH2 (Homo sapiens, UniProt Q12809)
Sequence (Q12809 whole entry): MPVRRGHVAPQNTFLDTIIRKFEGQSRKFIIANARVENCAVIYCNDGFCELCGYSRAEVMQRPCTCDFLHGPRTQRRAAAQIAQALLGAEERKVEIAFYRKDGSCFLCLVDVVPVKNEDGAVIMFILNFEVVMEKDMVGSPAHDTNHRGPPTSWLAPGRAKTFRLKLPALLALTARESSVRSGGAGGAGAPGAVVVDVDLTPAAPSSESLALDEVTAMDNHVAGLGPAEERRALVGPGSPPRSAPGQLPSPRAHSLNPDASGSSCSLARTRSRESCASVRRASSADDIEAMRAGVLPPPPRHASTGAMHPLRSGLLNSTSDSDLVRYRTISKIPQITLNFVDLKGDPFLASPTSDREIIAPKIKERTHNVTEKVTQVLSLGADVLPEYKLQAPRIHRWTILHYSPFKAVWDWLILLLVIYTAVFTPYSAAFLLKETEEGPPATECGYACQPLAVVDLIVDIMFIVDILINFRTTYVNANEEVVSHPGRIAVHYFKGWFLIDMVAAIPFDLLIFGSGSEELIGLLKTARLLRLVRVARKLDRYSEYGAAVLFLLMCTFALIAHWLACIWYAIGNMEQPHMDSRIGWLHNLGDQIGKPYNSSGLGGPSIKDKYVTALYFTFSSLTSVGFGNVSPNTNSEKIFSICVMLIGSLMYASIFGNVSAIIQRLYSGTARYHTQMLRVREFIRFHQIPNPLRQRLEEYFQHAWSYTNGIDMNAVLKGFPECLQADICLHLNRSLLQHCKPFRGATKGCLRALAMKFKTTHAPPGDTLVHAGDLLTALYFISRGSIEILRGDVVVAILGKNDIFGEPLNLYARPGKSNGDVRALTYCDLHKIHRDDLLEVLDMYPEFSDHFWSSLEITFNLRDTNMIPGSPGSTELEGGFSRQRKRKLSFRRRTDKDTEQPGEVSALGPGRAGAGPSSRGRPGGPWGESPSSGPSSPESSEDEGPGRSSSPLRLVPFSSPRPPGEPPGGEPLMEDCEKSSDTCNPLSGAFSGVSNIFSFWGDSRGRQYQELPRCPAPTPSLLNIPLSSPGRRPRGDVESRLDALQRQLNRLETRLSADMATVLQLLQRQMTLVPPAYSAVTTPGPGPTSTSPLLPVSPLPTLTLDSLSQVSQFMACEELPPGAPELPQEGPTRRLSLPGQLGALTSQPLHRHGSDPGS
test-details: Inhibition of human ERG by automated patch clamp method
measurement-kind: IC50 (µM)
Please state the figure in µM; there is no need to write the unit.

Exercise: Specify measured IC50 for "CCCCc1nc(C(C)C)c(CC(=O)OCC)c(=O)n1Cc1ccc(-c2ccccc2-c2noc(=O)[nH]2)cc1" .
Key: 8.1

---

system: Peroxisome proliferator-activated receptor delta (Homo sapiens, UniProt Q03181)
Sequence (Q03181 whole entry): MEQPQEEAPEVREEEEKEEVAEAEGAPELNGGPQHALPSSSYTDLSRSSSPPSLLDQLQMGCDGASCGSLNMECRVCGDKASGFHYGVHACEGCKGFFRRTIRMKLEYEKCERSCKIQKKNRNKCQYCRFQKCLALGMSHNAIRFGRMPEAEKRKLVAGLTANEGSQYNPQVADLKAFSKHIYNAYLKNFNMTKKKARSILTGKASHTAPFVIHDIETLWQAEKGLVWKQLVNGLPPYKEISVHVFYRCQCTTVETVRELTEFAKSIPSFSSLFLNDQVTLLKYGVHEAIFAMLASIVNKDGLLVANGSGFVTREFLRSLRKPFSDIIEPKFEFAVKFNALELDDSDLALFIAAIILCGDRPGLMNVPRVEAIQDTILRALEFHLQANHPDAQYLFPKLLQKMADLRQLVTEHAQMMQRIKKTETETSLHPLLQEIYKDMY
test-details: Binding affinity to PPARdelta (unknown origin) by TR-FRET competitive binding assay
measurement-kind: IC50

Exercise: Tell me IC50 reported for "CCCCc1nc(C(C)C)c(CC(=O)OCC)c(=O)n1Cc1ccc(-c2ccccc2-c2noc(=O)[nH]2)cc1"
Key: > 75 µM

---

test-details: Protein binding to human plasma
Type: ADME, cell-free
settings: read-out: PPB (converted)
measurement-kind: fraction unbound
Give your answer as a number; write no unit.

Exercise: Assign fraction unbound to the following record: "CCCCc1nc(C(C)C)c(CC(=O)OCC)c(=O)n1Cc1ccc(-c2ccccc2-c2noc(=O)[nH]2)cc1"
Key: 0.002

---

The following compounds are listed with their measured remaining at 0.5 h values.
test-details: Stability in mouse liver microsomes assessed as parent compound remaining after 30 mins
Type: ADME, Microsome
settings: read-out: Stability
Write the number in % without appending the unit.

Reference set (8 entries):
CCCCc1nc(C2CC2)c(CC(=O)OC(C)C)c(=O)n1Cc1ccc(-c2ccccc2-c2noc(=O)[nH]2)cc1 14
CCCCc1nc(C)c(CC(=O)OC2CCCCC2)c(=O)n1Cc1ccc(-c2ccccc2-c2noc(=O)[nH]2)cc1 10.7
CCCCc1nc(C(C)C)c(CC(=O)OC)c(=O)n1Cc1ccc(-c2ccccc2-c2noc(=O)[nH]2)cc1 9.4
CCCCOC(=O)Cc1c(C)nc(CCCC)n(Cc2ccc(-c3ccccc3-c3noc(=O)[nH]3)cc2)c1=O 10.2
CCCCc1nc(C2CC2)c(CC(=O)OC)c(=O)n1Cc1ccc(-c2ccccc2-c2noc(=O)[nH]2)cc1 16.4
CCCCc1nc(C(C)(C)C)c(CC(=O)OCC)c(=O)n1Cc1ccc(-c2ccccc2-c2noc(=O)[nH]2)cc1 14
CCCCc1nc(C)c(CC(=O)OCC2CC2)c(=O)n1Cc1ccc(-c2ccccc2-c2noc(=O)[nH]2)cc1 13
CCCCc1nc(C(C)C)c(CC(=O)OCC(C)C)c(=O)n1Cc1ccc(-c2ccccc2-c2noc(=O)[nH]2)cc1 13.7

Exercise: Give a short answer stating reported remaining at 0.5 h for "CCCCc1nc(C(C)C)c(CC(=O)OC2CC2)c(=O)n1Cc1ccc(-c2ccccc2-c2noc(=O)[nH]2)cc1" .
Key: 11.4

Exercise: Specify measured remaining at 0.5 h for "CCCCc1nc(C)c(CC(=O)OCC2CCCCC2)c(=O)n1Cc1ccc(-c2ccccc2-c2noc(=O)[nH]2)cc1" .
Key: 8.9
